Tested on: 885512-296-R-J2-PDC complex spheroid growth, % test/control;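 further: spheroids exposed to compounds for seven days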
assayExplanation: Anticancer human tumor 885512-296-R-J2-PDC patient-derived breast carcinoma cell line growth inhibition [AhR]; active means viability on the fitted dose curve at most 10% of control; inactive means the rest
appliedConditions: second compound 10 µM; first compound 0.316 µM
Bench note: report the call from active, inactive

Examples from the recorded data:
compound="CC1COCCN1c1cc(-c2ccnn2C)c2ccnc(-c3ccn[nH]3)c2n1 (stereo unspecified) + Cc1ccccc1N=Nc1ccc(NC(=O)c2ccnn2C)c(C)c1" discretelabel=active
compound="CC1COCCN1c1cc(-c2ccnn2C)c2ccnc(-c3ccn[nH]3)c2n1 (stereo unspecified) + CC(CO)NC(=O)c1cc(-c2ccc(Cl)cc2)nn(-c2cnn(C)c2)c1=O" discretelabel=active
compound="NS(=O)(=O)OCC1CC(n2ccc3c(NC4CCc5ccccc54)ncnc32)CC1O (stereo unspecified) + CC(CO)NC(=O)c1cc(-c2ccc(Cl)cc2)nn(-c2cnn(C)c2)c1=O" discretelabel=inactive
compound="CC1(C)CCC(CN2CCN(c3ccc(C(=O)NS(=O)(=O)c4ccc(NCC5CCOCC5)c([N+](=O)[O-])c4)c(Oc4cnc5[nH]ccc5c4)c3)CC2)=C(c2ccc(Cl)cc2)C1 + Cc1cncc(-c2nc(NCCc3c[nH]c4ccccc34)c3ncn(C(C)C)c3n2)c1" discretelabel=inactive
compound="O=C(c1cc(Cc2n[nH]c(=O)c3ccccc23)ccc1F)N1CCN(C(=O)C2CC2)CC1 + Cc1ccccc1N=Nc1ccc(NC(=O)c2ccnn2C)c(C)c1" discretelabel=inactive

Asked: Tell me the assay call for COc1cccc2c1C(=O)c1c(O)c3c(c(O)c1C2=O)CC(O)(C(=O)CO)CC3OC1CC(N)C(O)C(C)O1 (stereo unspecified) + Cc1cncc(-c2nc(NCCc3c[nH]c4ccccc34)c3ncn(C(C)C)c3n2)c1 please.
Given back: active

Asked: Tell me the assay call for COc1cccc2c1C(=O)c1c(O)c3c(c(O)c1C2=O)CC(O)(C(=O)CO)CC3OC1CC(N)C(O)C(C)O1 (stereo unspecified) + Cc1ccccc1N=Nc1ccc(NC(=O)c2ccnn2C)c(C)c1 please.
Given back: active

Asked: Tell me the assay call for CC1(C)CCC(CN2CCN(c3ccc(C(=O)NS(=O)(=O)c4ccc(NCC5CCOCC5)c([N+](=O)[O-])c4)c(Oc4cnc5[nH]ccc5c4)c3)CC2)=C(c2ccc(Cl)cc2)C1 + Cc1ccccc1N=Nc1ccc(NC(=O)c2ccnn2C)c(C)c1 please.
Given back: inactive

Asked: Tell me the assay call for CC(C)c1c(-c2ccccc2)nc2c(C#N)c[nH]n2c1=O + Cc1ccccc1N=Nc1ccc(NC(=O)c2ccnn2C)c(C)c1 please.
Given back: inactive

Asked: Tell me the assay call for O=C(C=Cc1cccc(S(=O)(=O)Nc2ccccc2)c1)NO + Cc1ccccc1N=Nc1ccc(NC(=O)c2ccnn2C)c(C)c1 please.
Given back: inactive

Asked: Tell me the assay call for CC(C)c1c(-c2ccccc2)nc2c(C#N)c[nH]n2c1=O + Cc1cncc(-c2nc(NCCc3c[nH]c4ccccc34)c3ncn(C(C)C)c3n2)c1 please.
Given back: inactive

src = PubChem BioAssay AID1919006
